Values compiled from the NIST ThermoML archive (doi:10.1016/j.jct.2017.01.016).

# experimental_conditions: 308.15 K; 101 kPa; Liquid; Frequency=3 MHz; Linear variable-path acoustic interferometer
measurement_type: speed of sound (m/s)
Reply numerically in m/s, unit not repeated.

Examples from the recorded data:
>  <entry_smiles>
Cc1ccc(C)cc1

>  <speed of sound, m/s>
1267.6

$$$$
>  <entry_smiles>
Cc1cccc(C)c1

>  <speed of sound, m/s>
1282.3

$$$$
>  <entry_smiles>
Cc1cc(C)cc(C)c1

>  <speed of sound, m/s>
1300.2

$$$$
>  <entry_smiles>
Cc1ccccc1

>  <speed of sound, m/s>
1264.2

$$$$
>  <entry_smiles>
Cc1ccccc1C

>  <speed of sound, m/s>
1313.3

$$$$

Q: For the compound `C1COCCO1` , give its measured speed of sound value.
Result: 1301.2

Q: Fill in reported speed of sound for this entry: `c1ccccc1`
Result: 1252.4
